The reported numbers originate from patent US20160185837A1.

# system_tested: T1, human GIP receptor (human) (UniProt P48546)
# T1 sequence (looked up): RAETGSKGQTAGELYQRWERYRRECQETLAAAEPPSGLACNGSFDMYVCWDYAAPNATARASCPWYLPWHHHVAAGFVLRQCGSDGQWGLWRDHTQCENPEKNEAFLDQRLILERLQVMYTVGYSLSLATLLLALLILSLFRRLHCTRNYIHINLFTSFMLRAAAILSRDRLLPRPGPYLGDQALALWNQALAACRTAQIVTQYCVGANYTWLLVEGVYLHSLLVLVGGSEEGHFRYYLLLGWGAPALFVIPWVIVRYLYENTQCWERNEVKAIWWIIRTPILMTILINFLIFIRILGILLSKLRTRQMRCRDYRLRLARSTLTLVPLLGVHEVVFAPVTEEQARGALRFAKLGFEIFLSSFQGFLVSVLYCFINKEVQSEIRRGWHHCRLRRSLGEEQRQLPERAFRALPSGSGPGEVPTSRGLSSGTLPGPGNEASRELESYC
# test_protocol: cell-based or functional assay
cAMP EC50 listing for selected binders.
Numbers only here, please. The scale is pM.

Which measured cAMP EC50 value corresponds to IP398 (Fc fusion) YSEGTFISDYSIAMDKIHQQDFVNWLLAQKGKKNDWKHNITQGGGGSGGGGSGGGGSGGGGSGGGGSGGGGSACPPC ? 3.7

Also IP275 (Fc fusion) YSEGTFTSDYSKLLEKEAQRLFIEWLLKGPGGGGGSGGGGSGGGGSGGGGSATHTCPPC , if possible. 8.7

Now take the following binder into account.
Which measured cAMP EC50 value corresponds to IP321 (Fc fusion) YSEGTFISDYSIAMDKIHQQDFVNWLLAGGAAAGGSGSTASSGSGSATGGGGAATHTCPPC ? 9.6
